Taken from patent US10581022B2.

# assay: Solubility of compound in solvent
# Format: physicochemical
# Design: key: Good: represents that the compound was completely dissolved; Poor: represents that an insoluble matter remained
# assay_context: 15% by weight of compound, 40° C., after 30 minutes, visual
observed_property: solubility in 2-acetoxy-1-methoxypropane

>>> obs_value("C=CC(=O)OCCCCCCOc1ccc(CCC(=O)O[C@H]2CC[C@H](C(=O)Oc3ccc(OC(=O)[C@H]4CC[C@H](OC(=O)CCc5ccc(OCCCCCCOC(=O)C=C)cc5)CC4)c4nc(-c5ccccc5)cnc34)CC2)cc1 [Compound (1-1-1-1)]")
"Poor"
>>> obs_value("C=CC(=O)OCCCCOc1ccc(OC(=O)C2CCC(C(=O)Oc3ccc(OC(=O)C4CCC(C(=O)Oc5ccc(OCCCCOC(=O)C=C)cc5)CC4)c(C=NNc4nc5ccccc5s4)c3)CC2)cc1 (stereo not shown) [Compound (C-2)]")
"Poor"
>>> obs_value("C=CC(=O)OCCCCCCOc1ccc(CCC(=O)O[C@H]2CC[C@H](C(=O)Oc3ccc(OC(=O)[C@H]4CC[C@H](OC(=O)CCc5ccc(OCCCCCCOC(=O)C=C)cc5)CC4)c4nc(-c5ccccc5)c(C)nc34)CC2)cc1 [Compound (1-1-2-1)]")
"Good"
>>> obs_value("C=CC(=O)OCCCCOc1ccc(OC(=O)[C@H]2CC[C@H](C(=O)Oc3ccc(OC(=O)[C@H]4CC[C@H](C(=O)Oc5ccc(OCCCCOC(=O)C=C)cc5)CC4)c4sc(-c5ccccc5)nc34)CC2)cc1 [Compound (C-1)]")
"Poor"
